The measurements presented in this section are drawn from ChEMBL document CHEMBL1148330.

- Tested on: Mus musculus
- Test details: Effective dose (sc) required for antinociceptive potency in vivo in the paraphenylquinone writhing (PPQ) test in mice
- Assay type: functional
Provide the recorded ED50 for the entries that follow.
Numbers only, in µg/kg.

1) O=C1CC[C@@]2(OCCCc3ccccc3)[C@H]3Cc4cccc(O)c4[C@@]2(CCN3CC2CC2)C1 :: 1.4

Working through the 3 compounds below one at a time, give ED50 for each.
1. CO[C@@]12CCC(=O)[C@]3(C)Oc4c(O)ccc5c4[C@@]31CCN(C)[C@@H]2C5
2. COc1cccc2c1[C@]13CCN(CC4CC4)[C@H](C2)[C@]1(OCCCc1ccccc1)CCC(=O)C3
3. O=C1CC[C@@]2(OCCCc3ccccc3)[C@H]3Cc4cccc5c4[C@@]2(CCN3CC2CC2)C1O5 (some centres undefined)

Solution:
1. 9
2. 60
3. 9.4

----------
- System name: Kappa-type opioid receptor (Homo sapiens, UniProt P41145)
- Sequence (P41145 whole entry): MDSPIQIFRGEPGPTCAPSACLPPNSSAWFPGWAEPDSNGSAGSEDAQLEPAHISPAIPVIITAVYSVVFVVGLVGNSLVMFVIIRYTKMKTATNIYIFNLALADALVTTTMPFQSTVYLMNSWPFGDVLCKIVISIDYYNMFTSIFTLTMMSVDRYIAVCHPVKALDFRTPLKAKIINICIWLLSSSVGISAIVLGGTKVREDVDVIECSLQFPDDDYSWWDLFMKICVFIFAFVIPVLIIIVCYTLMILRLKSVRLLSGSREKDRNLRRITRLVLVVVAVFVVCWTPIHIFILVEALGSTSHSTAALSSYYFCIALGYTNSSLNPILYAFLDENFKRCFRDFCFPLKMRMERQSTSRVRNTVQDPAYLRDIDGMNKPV
- Test details: Antagonistic activity against recombinant human Opioid receptor kappa 1 expressed in CHO cells when incubated with U69,593
- Format: functional, cell-based
Provide the recorded Ke for the entries that follow.
Give bare numbers, in nM.

Answered cases to consult:
1. COc1cccc2c1[C@]13CCN(CC4CC4)[C@H](C2)[C@]1(OC)CCC(=O)C3 :: 26.1
2. COc1cccc2c1[C@]13CCN(CC4CC4)[C@H](C2)[C@]1(OCCCc1ccccc1)CCC(=O)C3 :: 2.52
3. CCCCOc1cccc2c1[C@]13CCN(CC4CC4)[C@H](C2)[C@]1(OC)CCC(=O)C3 :: 120

Problem: Form field - read-out: Ke; system: Kappa-type opioid receptor (Homo sapiens, UniProt P41145); submitted item: O=C1CC[C@@]2(OCCCc3ccccc3)[C@H]3Cc4cccc5c4[C@@]2(CCN3CC2CC2)C1O5 (some centres undefined)
Solution: 8.54

----------
- System name: Opioid receptors; mu & delta (Rattus norvegicus) (UniProt P33533+P33535)
- Sequence (P33533 whole entry, looked up): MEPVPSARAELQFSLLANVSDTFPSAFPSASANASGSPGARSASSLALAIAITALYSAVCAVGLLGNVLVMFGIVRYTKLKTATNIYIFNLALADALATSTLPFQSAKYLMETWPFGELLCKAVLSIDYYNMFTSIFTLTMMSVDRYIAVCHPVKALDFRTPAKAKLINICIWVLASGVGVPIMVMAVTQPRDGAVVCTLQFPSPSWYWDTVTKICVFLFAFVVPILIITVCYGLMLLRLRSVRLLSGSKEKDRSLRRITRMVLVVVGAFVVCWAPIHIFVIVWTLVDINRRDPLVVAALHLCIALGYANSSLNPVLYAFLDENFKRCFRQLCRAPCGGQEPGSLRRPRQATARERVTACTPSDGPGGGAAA
- Sequence (P33535 whole entry, looked up): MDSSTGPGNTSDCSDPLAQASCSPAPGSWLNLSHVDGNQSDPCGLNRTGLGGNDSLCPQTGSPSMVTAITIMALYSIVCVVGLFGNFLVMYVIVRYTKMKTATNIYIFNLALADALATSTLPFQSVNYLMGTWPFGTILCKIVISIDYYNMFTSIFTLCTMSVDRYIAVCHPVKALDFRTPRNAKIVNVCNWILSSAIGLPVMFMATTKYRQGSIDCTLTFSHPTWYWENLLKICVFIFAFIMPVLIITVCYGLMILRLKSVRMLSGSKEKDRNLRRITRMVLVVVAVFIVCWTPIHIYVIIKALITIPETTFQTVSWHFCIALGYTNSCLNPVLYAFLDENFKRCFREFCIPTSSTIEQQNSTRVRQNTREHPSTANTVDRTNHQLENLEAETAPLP
- Test details: Selectivity ratio of binding affinities between delta opioid receptors and mu opioid receptors in rat brain membranes
- Assay type: cell membranes
Would you please tag the item Fulfilled when its Selectivity ratio is 30 or above, and Not fulfilled when it is below?

1. CCCCCCOc1cccc2c1[C@]13CCN(CC4CC4)[C@H](C2)[C@]1(OC)CCC(=O)C3 :: Not fulfilled

Problem: Threshold query (Selectivity ratio >= 30) on CO[C@@]12CCC(=O)C[C@@]13CCN(CC1CC1)[C@@H]2Cc1cccc(OCc2ccccc2)c13
Solution: Not fulfilled

Problem: Threshold query (Selectivity ratio >= 30) on COc1cccc2c1[C@]13CCN(CC4CC4)[C@H](C2)[C@]1(OCCCc1ccccc1)CCC(=O)C3
Solution: Fulfilled

Problem: Threshold query (Selectivity ratio >= 30) on CCCCOc1cccc2c1[C@]13CCN(CC4CC4)[C@H](C2)[C@]1(OC)CCC(=O)C3
Solution: Fulfilled

Problem: Threshold query (Selectivity ratio >= 30) on COc1cccc2c1[C@]13CCN(CC4CC4)[C@H](C2)[C@]1(OC)CCC(=O)C3 [CYPRODIME]
Solution: Fulfilled

Problem: Threshold query (Selectivity ratio >= 30) on CCCCOc1cccc2c1[C@]13CCN(CC4CC4)[C@H](C2)[C@]1(OCCCc1ccccc1)CCC(=O)C3
Solution: Not fulfilled

Problem: Threshold query (Selectivity ratio >= 30) on CO[C@@]12CCC(=O)C[C@@]13CCN(CC1CC1)[C@@H]2Cc1cccc(OCCCc2ccccc2)c13
Solution: Fulfilled

Problem: Threshold query (Selectivity ratio >= 30) on O=C1CC[C@@]2(OCCCc3ccccc3)[C@H]3Cc4cccc(O)c4[C@@]2(CCN3CC2CC2)C1
Solution: Not fulfilled

Problem: Threshold query (Selectivity ratio >= 30) on O=C1CC[C@@]2(OCCCc3ccccc3)[C@H]3Cc4cccc5c4[C@@]2(CCN3CC2CC2)C1O5 (some centres undefined)
Solution: Fulfilled
